Conditions: buffer; pH 7.4; 200.0 µM
Use solubility kinetic to assign classes; range list: LOW = under 5 µg/mL, MID = from 5 µg/mL up to 20 µg/mL, HIGH = 20 µg/mL and over

molecule | class_label
CCCCCCN1C=CC(=C2C(=O)c3ccccc3C2=O)C=C1 | LOW
CCOc1nc(C)cc(COC)c1C(N)=O | HIGH

Task item: Form field 'band' for CC(C)(C)c1ccc(/C=C/C(=O)NC2CCS(=O)(=O)C2)cc1 (configuration not stated)
Reply: HIGH

Task item: What do we get for O=C(O)C(Cc1ccccc1)N=C(NS(=O)(=O)c1ccccc1)c1ccccc1 (configuration not stated) ?
Reply: HIGH

Task item: What do we get for NC(=O)C1CCCN(C(=O)c2ccc3c(c2)NC(=O)CS3)C1 (configuration not stated) ?
Reply: HIGH

Task item: What do we get for COc1cc(OC)c(C=O)c(OC(=O)N(C)C)c1 ?
Reply: HIGH

Task item: What do we get for O=C1CNC(c2ccccc2Cl)c2cc(Br)ccc2N1 (configuration not stated) ?
Reply: LOW

Task item: What do we get for O=C(OCC(=O)c1ccc[nH]1)c1ccc(Br)cc1 ?
Reply: MID

Task item: What do we get for O=c1[nH]c(N2CCCCC2)nc2ncn(Cc3ccccc3)c12 ?
Reply: HIGH

Task item: What do we get for CCOc1ccc(OCCCCn2cnc3ccccc3c2=O)cc1 ?
Reply: LOW

Task item: What do we get for O=C(NC(=S)N1CCCCC1)c1csc([N+](=O)[O-])c1 ?
Reply: HIGH

* * *

Conditions: buffer; pH 7.4; 200.0 µM
Please respond with reported solubility kinetic for every item in the list.
Give bare numbers, in µg/mL.

Here's what some known entries look like.
cpd_smiles | unit_spec | solubility kinetic
CCCn1c(N)c(C(=O)COc2ccc(Br)cc2F)c(=O)n(C)c1=O | µg/mL | 3.9
CCOC(=O)c1sc(=S)n(Cc2ccccc2)c1C | µg/mL | 3.4
O=C(Cn1cc(C(F)(F)F)ccc1=O)Nc1ccccc1 | µg/mL | 10
Cc1cc(C)nc(SCc2ccc(Br)cc2)n1 | µg/mL | 1.5

Next compound, please.
Task item: Report solubility kinetic for CCn1c(=O)c2c(nc3n2CCCN3Cc2ccccc2)n(C)c1=O please.
Reply: 13.7

* * *

Please respond with reported solubility kinetic for every item in the list.
Settings: buffer; pH 7.4; 200.0 µM

Here's what some known entries look like.
cpd_smiles | assay_result
O=C(NCCCn1ccnc1)c1ccc(C(F)(F)F)cc1 | > 44.6 µg/mL
Cc1ccc(C(=O)NCCCNC(=O)c2cccnc2)cc1 | > 44.6 µg/mL
O=C(O)c1cc(C(=O)O)cc(N2C(=O)CSC2=S)c1 | > 44.6 µg/mL

For each listed entry, give its solubility kinetic.
1. O=C(NCc1cccnc1)c1nn2cccnc2c1Cl
2. O=C1/C(=C\c2ccncc2)N2CCC1CC2

Reply:
1: > 43.2 µg/mL; 2: > 32.1 µg/mL

* * *

Details: buffer; pH 7.4; 200.0 µM
property_label: solubility kinetic

For each listed entry, give its solubility kinetic.
1. Cc1ccc(-c2cn3cc(C)ccc3n2)cc1
2. O=C(CNC(=O)c1cccc(F)c1)NC1CC1
3. COc1cccc(OC)c1C(=O)NC(=S)NCc1cccnc1
4. CCOC(=O)CNC(=O)CN1CCC(c2nc3ccccc3[nH]2)CC1

Reply:
1. 1.6 µg/mL
2. > 35.4 µg/mL
3. 11.3 µg/mL
4. > 51.7 µg/mL

These measurements were taken from PubChem BioAssay AID1996.
